Molecular target: GRIP2_6, Q9C0E4
Sequence (Q9C0E4 648-740): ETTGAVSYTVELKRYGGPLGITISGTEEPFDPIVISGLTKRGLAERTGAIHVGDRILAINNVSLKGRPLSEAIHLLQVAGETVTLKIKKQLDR
Experiment: holdup assay
Parameters: key: below the threshold = too weak to quantify, mostly under pKd 3.1 to 4
Settings: plain residues with an end cap or a label only (N-terminal biotin on a linker: ado-ado)
QUANTITY NAME: pKd

These recorded examples may help you get a feel for the data.
## Input Could you tell me which pKd is on file for EDLEDEWEVI [TECPR2, O15040] ?
## Output below the threshold

## Input Which pKd value belongs to DGVNEKVSCV [HTR2A, P28223] ?
## Output below the threshold

## Input Could you share which pKd value was measured for VLYPREGTEV [FOXI1, Q12951] ?
## Output below the threshold

## Input For RFQQRMQTHV [KIRREL1, Q96J84] , what is its reported pKd?
## Output 3.54

## Input Query: pKd; subject: MHIQEKGFHV [EPHA6, Q9UF33]
## Output 3.59

***
## Input Please report the recorded pKd for IDESKKEWLI [CNTNAP2, Q9UHC6] .
## Output 3.57

## Input Can you look up the measured pKd of PYPTADHMLA [JUP, P14923] for me?
## Output below the threshold

## Input Which measured pKd value corresponds to KPGKGSETVV [FZD4, Q9ULV1] ?
## Output below the threshold

## Input May I ask what pKd has been recorded for DFLSTFHIRI [CIB2, O75838] ?
## Output 4.58

## Input Could you tell me which pKd is on file for GTGYDRKDYV [CLDN3, O15551] ?
## Output below the threshold

## Input Given the entry TISFTQTSQF [SLC1A1, P43005] , report its measured pKd.
## Output below the threshold

## Input Reported pKd for ELSATVTTDC [TRIP6, Q15654] : what is it?
## Output below the threshold

## Input Any idea what pKd was measured for PYSESDDDWC [CACNA1A, O00555] ?
## Output below the threshold

## Input Can you look up the measured pKd of EDGESWEYQI [TRPV6, Q9H1D0] for me?
## Output 3.8

## Input Which measured pKd value corresponds to KKMLQRRTLL [OR8G1, Q15617] ?
## Output below the threshold

Provenance of the data: paper PMC9482650
